// IC50 lookup, one value per entry
# measured.on: UniProt P43490
# method: NAMPT enzymatic inhibition assay (fluorescence, NADH product)
# Type: biochemical
# measurement.parameters: [HDB]; read-out: NAMPT IC50 (μM) [HDB]

| molecule | measured.on | IC50 |
| --- | --- | --- |
| O=C(/C=C/c1cccnc1)NCC[C@@H]1[C@H]2CN(Cc3ccccc3)C[C@@H]12 [Example 243] | UniProt P43490 | 0.01 to 0.49 µM |
| Cc1nc2cccc(N3C[C@@H]4[C@@H](CCNC(=O)/C=C/c5cccnc5)[C@@H]4C3)c2o1 [Example 334] | UniProt P43490 | < 0.01 µM |

[Q] Fill in reported IC50 for this entry: CC(C)(C)c1cccc(N2C[C@@H]3[C@@H](CCNC(=O)/C=C/c4cccnc4)[C@@H]3C2)c1 [Example 155]
[A] 0.01 to 0.49 µM

[Q] Item COc1ccc(/C=C/C(=O)NCC[C@@H]2[C@H]3CN(c4nc(Cl)ncc4F)C[C@@H]23)cn1 [Example 212] : provide IC50
[A] 0.01 to 0.49 µM

[Q] Identify measured IC50 corresponding to Cc1noc2ncc(/C=C/C(=O)NCC[C@@H]3[C@H]4CN(C(=O)OC(C)(C)C)C[C@@H]34)cc12 [Example 9]
[A] 0.01 to 0.49 µM

[Q] Complete the entry with IC50 for O=C(/C=C/c1cccnc1)NCC[C@@H]1[C@H]2CN(c3cccnc3)C[C@@H]12 [Example 149]
[A] 0.01 to 0.49 µM

[Q] Please give measured IC50 of the following entry: O=C(CCc1ccncc1)NCC[C@@H]1[C@H]2CN(c3nc(Cl)ncc3F)C[C@@H]12 [Example 215]
[A] 1 to 29 µM

====

# measured.on: human NAMPT enzyme (His-hNAMPT) (Homo sapiens (Human))
# method: NAMPT enzymatic inhibition assay (fluorescence, NADH product)
# Type: biochemical
# measurement.parameters: [BPS]; read-out: NAMPT IC50 (μM) [BPS]
# Procedure: The compounds were then diluted 20 fold in an intermediate dilution to 5% DMSO and water. […] Fluorescence intensity was measured at an excitation of 340 nm and an emission of 460 nm using a Tecan Infinite M1000 microplate reader. The fluorescence values indicated increase of NADH product. Enzyme activity assay was performed in duplicate at each concentration. The fluorescence data was analyzed and compared. […]
measured.quantity: IC50

| molecule | IC50 |
| --- | --- |
| O=C(NCC[C@@H]1[C@H]2CN(C(=O)N3CCCC3)C[C@@H]12)c1cc2ccncc2o1 | 0.01 to 0.49 µM |

[Q] Give the reported value of IC50 for this record: CC1(OC(=O)N2C[C@@H]3[C@@H](CCNC(=O)c4cc5cc(N)ncc5s4)[C@@H]3C2)COC1
[A] 0.01 to 0.49 µM

[Q] Tell me IC50 reported for O=C(NCC[C@@H]1[C@H]2CN(C(=O)CC3CCOCC3)C[C@@H]12)c1cc2cnccc2[nH]1
[A] 0.01 to 0.49 µM

====

# measured.on: human NAMPT enzyme (His-hNAMPT) (Homo sapiens (Human))
# method: NAMPT enzymatic inhibition assay (fluorescence, NADH product)
# Assay type: biochemical
# measurement.parameters: [HDB]; read-out: NAMPT IC50 (μM) [HDB]
measured.quantity: IC50

| compound | measured.on | IC50 |
| --- | --- | --- |
| O=C(/C=C/c1cccnc1)NCC[C@@]1(F)[C@@H]2CN(c3nc(Cl)ncc3F)C[C@@H]21 | human NAMPT enzyme (His-hNAMPT) (Homo sapiens (Human)) | 0.01 to 0.49 µM |
| O=C(/C=C/c1cccnc1)NCC[C@@H]1[C@H]2CN(c3nc(Cl)ncc3F)C[C@@H]12 | human NAMPT enzyme (His-hNAMPT) (Homo sapiens (Human)) | < 0.01 µM |
| O=C(/C=C/c1cccnc1)NCC[C@@H]1[C@H]2CN(C(c3ccccc3)C3CCOCC3)C[C@@H]12 (stereo partly drawn) | human NAMPT enzyme (His-hNAMPT) (Homo sapiens (Human)) | 0.01 to 0.49 µM |
| O=C(/C=C/c1cccnc1)NCC[C@@H]1[C@H]2CN(c3nc(N4CCC(O)C4)ncc3F)C[C@@H]12 (stereo partly drawn) | human NAMPT enzyme (His-hNAMPT) (Homo sapiens (Human)) | < 0.01 µM |
| CC(C)N1C[C@@H]2[C@@H](CCNC(=O)/C=C/c3cccnc3)[C@@H]2C1 | human NAMPT enzyme (His-hNAMPT) (Homo sapiens (Human)) | 1 to 29 µM |
| O=C(/C=C/c1cccnc1)NCC[C@H]1[C@H]2CN(c3ccccc3)C[C@@H]12 | human NAMPT enzyme (His-hNAMPT) (Homo sapiens (Human)) | 0.01 to 0.49 µM |
| O=C(/C=C/c1cccnc1)NCC[C@@H]1[C@H]2CN(c3ccncn3)C[C@@H]12 | human NAMPT enzyme (His-hNAMPT) (Homo sapiens (Human)) | 0.01 to 0.49 µM |
| O=C(/C=C/c1cccnc1)NCC[C@@H]1[C@H]2CN(Cc3cccc(Cl)c3)C[C@@H]12 | human NAMPT enzyme (His-hNAMPT) (Homo sapiens (Human)) | < 0.01 µM |

[Q] Jot down IC50 (human NAMPT enzyme (His-hNAMPT) (Homo sapiens (Human))) of NC(=O)C(c1ccccc1)N1C[C@@H]2[C@@H](CCNC(=O)/C=C/c3cccnc3)[C@@H]2C1 (stereo partly drawn) .
[A] < 0.01 µM

[Q] Send back human NAMPT enzyme (His-hNAMPT) (Homo sapiens (Human)) IC50 of O=C(/C=C/c1cccnc1)NCC[C@@H]1[C@H]2CN(c3ncc(F)cn3)C[C@@H]12 only.
[A] 0.01 to 0.49 µM

[Q] Give IC50; test system human NAMPT enzyme (His-hNAMPT) (Homo sapiens (Human)); compound O=C(/C=C/c1cccnc1)NCC[C@@H]1[C@H]2CN(c3cccc(C(F)(F)F)c3)C[C@@H]12
[A] 0.01 to 0.49 µM

[Q] Give IC50 only, for O=C(/C=C/c1cccnc1)NCC[C@@H]1[C@H]2CN(c3ncc(Cl)cn3)C[C@@H]12 , using human NAMPT enzyme (His-hNAMPT) (Homo sapiens (Human)) data.
[A] 0.01 to 0.49 µM

====

# measured.on: human NAMPT enzyme (His-hNAMPT) (Homo sapiens (Human), UniProt P43490)
# Sequence (P43490 whole entry): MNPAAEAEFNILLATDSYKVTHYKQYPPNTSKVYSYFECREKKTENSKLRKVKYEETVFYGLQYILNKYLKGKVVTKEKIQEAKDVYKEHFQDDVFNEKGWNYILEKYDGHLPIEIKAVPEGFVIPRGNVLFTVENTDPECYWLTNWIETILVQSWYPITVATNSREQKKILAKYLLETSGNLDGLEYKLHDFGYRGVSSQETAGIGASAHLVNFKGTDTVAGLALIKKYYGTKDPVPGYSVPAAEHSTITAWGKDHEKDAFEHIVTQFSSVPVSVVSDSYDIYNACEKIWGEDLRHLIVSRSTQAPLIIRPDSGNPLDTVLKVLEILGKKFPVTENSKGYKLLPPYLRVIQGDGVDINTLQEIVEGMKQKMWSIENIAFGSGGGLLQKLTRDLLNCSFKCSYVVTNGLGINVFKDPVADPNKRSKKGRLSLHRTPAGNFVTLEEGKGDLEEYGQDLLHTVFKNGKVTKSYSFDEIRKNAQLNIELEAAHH
# method: NAMPT enzymatic inhibition assay (fluorescence, NADH product)
# Assay type: biochemical
# measurement.parameters: [HDB]; read-out: NAMPT IC50 (μM) [HDB]
measured.quantity: IC50

Sample answers from the record:
| compound | IC50 |
| --- | --- |
| O=C(/C=C/c1cccnc1)NCC[C@@H]1[C@H]2CN(c3nc(Oc4ccccc4)ncc3F)C[C@@H]12 [Example 306] | 0.01 to 0.49 µM |
| N#Cc1ccc(N2C[C@@H]3[C@@H](CCNC(=O)/C=C/c4cccnc4)[C@@H]3C2)cc1 [Example 137] | 0.01 to 0.49 µM |
| CC(C)(C)OC(=O)N1C[C@@H]2[C@H](C1)[C@@]2(F)CCNC(=O)/C=C/c1cccnc1 [Example 291] | 0.01 to 0.49 µM |
| O=C(/C=C/c1cccnc1)NCC[C@@H]1[C@H]2CN(c3nc(OCCO)ncc3F)C[C@@H]12 [Example 314] | 0.01 to 0.49 µM |
| O=C(O)c1cccc(C(=O)N2C[C@@H]3[C@@H](CCNC(=O)c4cnc5nccn5c4)[C@@H]3C2)c1 [Example 182] | 0.01 to 0.49 µM |
| NC(=O)COc1ncc(F)c(N2C[C@@H]3[C@@H](CCNC(=O)/C=C/c4cccnc4)[C@@H]3C2)n1 [Example 285] | < 0.01 µM |
| CC(c1ccccn1)N1C[C@@H]2[C@@H](CCNC(=O)/C=C/c3cccnc3)[C@@H]2C1 (stereo partly shown) [Example 321] | 0.01 to 0.49 µM |
| O=C(/C=C/c1cccnc1)NCC[C@@H]1[C@H]2CN(CCc3ccc(F)cc3)C[C@@H]12 [Example 250] | 0.01 to 0.49 µM |
| O=C(/C=C/c1cccnc1)NCC[C@@H]1[C@H]2CN(c3ccnc(OC(F)F)c3)C[C@@H]12 [Example 299] | < 0.01 µM |

[Q] Give the reported value of IC50 for this record: O=C(NCC[C@@H]1[C@H]2CN(c3nc(Cl)ncc3F)C[C@@H]12)c1cc2cnccc2[nH]1 [Example 204]
[A] 0.01 to 0.49 µM

====

# measured.on: human NAMPT enzyme (His-hNAMPT) (Homo sapiens (Human), UniProt P43490)
# method: NAMPT enzymatic inhibition assay (fluorescence, NADH product)
# Type: biochemical
# measurement.parameters: [BPS]; read-out: NAMPT IC50 (μM) [BPS]
# Method: The compounds were then diluted 20 fold in an intermediate dilution to 5% DMSO and water. […] Fluorescence intensity was measured at an excitation of 340 nm and an emission of 460 nm using a Tecan Infinite M1000 microplate reader. The fluorescence values indicated increase of NADH product. Enzyme activity assay was performed in duplicate at each concentration. The fluorescence data was analyzed and compared. […]
IC50 by entry:

Consider the following illustrative entries.
| compound | IC50 |
| --- | --- |
| CC(C)(C)OC(=O)N1C[C@@H]2[C@H](C1)[C@H]2CC1(NC(=O)/C=C/c2cccnc2)CC1 | > 30 µM |
| CC1(OC(=O)N2C[C@@H]3[C@@H](CCNC(=O)C4C[C@@H]4c4cccnc4)[C@@H]3C2)COC1 (mixture of isomers) | 0.01 to 0.49 µM |
| CC1(OC(=O)N2C[C@@H]3[C@@H](CCNC(=O)/C=C/c4cccnc4)[C@@H]3C2)COC1 | 0.01 to 0.49 µM |
| O=C(NCC[C@@H]1[C@H]2CN(C(=O)c3ccccc3)C[C@@H]12)c1ccc2nccn2c1 | 0.01 to 0.49 µM |

[Q] Given CC(C)(C)OC(=O)N1C[C@@H]2[C@@H](CNC(=O)c3cc4ccncc4o3)[C@@H]2C1 , respond with its IC50.
[A] 1 to 29 µM

[Q] Fill in reported IC50 for this entry: CC1(OC(=O)N2C[C@@H]3[C@@H](CCNC(=O)c4cc5cnccc5[nH]4)[C@@H]3C2)COC1
[A] 0.01 to 0.49 µM

[Q] For the compound CN1CCC(OC(=O)N2C[C@@H]3[C@@H](CCNC(=O)/C=C/c4ccc(N)nc4)[C@@H]3C2)CC1 , give its reported IC50.
[A] 0.01 to 0.49 µM
